- assay-system: T1, human immunoglobulin E (hIgE) (human, UniProt P01854-1 1-428)
- T1 construct: also called human IgE; Native IgE (Abcam)
- T1 sequence (P01854 whole entry): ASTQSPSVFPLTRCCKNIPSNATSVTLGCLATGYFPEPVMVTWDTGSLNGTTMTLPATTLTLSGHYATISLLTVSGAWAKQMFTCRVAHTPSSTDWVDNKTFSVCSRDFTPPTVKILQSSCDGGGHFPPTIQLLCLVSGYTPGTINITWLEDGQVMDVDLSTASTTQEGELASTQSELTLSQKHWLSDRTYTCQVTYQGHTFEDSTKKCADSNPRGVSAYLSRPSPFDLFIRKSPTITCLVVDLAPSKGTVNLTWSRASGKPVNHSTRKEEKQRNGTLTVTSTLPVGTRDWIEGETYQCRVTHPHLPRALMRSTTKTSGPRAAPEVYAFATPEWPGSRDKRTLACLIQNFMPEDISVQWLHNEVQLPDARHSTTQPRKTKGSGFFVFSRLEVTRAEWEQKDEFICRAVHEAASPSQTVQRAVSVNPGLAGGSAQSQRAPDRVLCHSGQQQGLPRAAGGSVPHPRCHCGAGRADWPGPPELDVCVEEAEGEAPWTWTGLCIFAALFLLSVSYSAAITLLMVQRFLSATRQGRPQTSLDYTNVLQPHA
- protocol-description: SPR competition, hIgE + mAb over hFcεRIα chip, pH 6 (text: pH 5.5)
reported-endpoint: IC50 (nM)
Write the value in nM as a bare number.

Below, each entry is followed by its recorded IC50 result.
16E4 human IgG1 mAb (antibody, V domains shown, also called clone 16E4) VH: EVQLVESGGGLVQPGGSLRLSCAASGFTFSSYYMSWVRQAPGKGLEWVSSIYSDGSYAYYADSVKGRFTISRDNAKNTLYLQMNSLKSEDTAVYYCAKDLKARYSGTYHDEGYDYWGQGTQVTVSS VL: SSALTQPSALSVTLGQSAKITCQGGSLGATYAYWYQQKPGQAPVLVIYDDDSRPSGIPERFSGSSSGGRATLTISGAQAEDEGDYYCQSAYSNGNAVFGGGTHLTVL; 5.17
3D6 human IgG1 mAb (antibody, V domains shown, human IgG1 and human light chain constant domains; also called clone 3D6) VH: QVQLVESGGGLVQPGGSLRLSCAASGFTFSSYYMTWVRQAPGKGLEWVSSIYSDGSNTYYADSVKGRFTISRDNAKNTLHLQMNSLKSEDTAVYYCAKDLKARYSGSYHDEGYDYWGQGTQVTVSS VL: QSALTQPSALSVTLGQTAKITCQGGSLGSSYAHWYQQKPGQAPVLVIYDDDSRPSGIPERFSGSSSGGRATLTISGAQAEDEGDYYCQSADSSGNPVFGGGTKLTVL; 8.04

Looking for the measured IC50 of 20D5 human IgG1 mAb (antibody, V domains shown, also called clone 20D5) VH: QLQLVESGGGLVQPGGSLRLSCAASGFAFSSYVMTWVRQAPGKGLEWVSSIYSDGSHTYYADSVKDRFTISRDNAKNTLFLQMNSLKSEDTAVYYCAKDAEYYSGSYYYTDTKYDYWGQGTQVTVSS VL: SSALTQPSALSVTLGQTAKITCQGGSLGSSYAHWYQQKPGQAPVLVIYADDSRPSGIPERFSGSSSGGTATLTISGAQAEDEGDYYCQSADSSGNAVFGGGTHLTVL , can you help?
3.83
